Tested on: SR leukemia
Assay: NCI tumour cell line growth inhibition, 48 h
Experimental endpoint: TGI

input: Which measured TGI value corresponds to CCCCCCc1cc2cc(-c3csc(-c4ccc(OC)cc4)n3)c(=O)oc2cc1O ?
output: > 100 µM

input: Which measured TGI value corresponds to Nc1c(C(=O)Nc2ccc([As](=O)(O)O)cc2)cnc2nnnn12 ?
output: > 100 µM

input: Which measured TGI value corresponds to NCCCCNCCCNC(=O)CNC(=O)CC(O)C(N)CCCC(NC(=O)C(CN)NC(=O)C(O)CNC(=O)CC(N)c1ccc(O)cc1)C(=O)O (stereo not drawn) ?
output: > 10 µM

----------
System: MDA-MB-231 breast
Experiment: NCI tumour cell line growth inhibition, 48 h
Field: TGI. Provide a value for each of the compounds that follow.

input: Which measured TGI value corresponds to CCCCCCCCCCCCNC(=O)CCC(NC(=O)c1ccc(N(C)Cc2cnc3nc(N)nc(N)c3n2)cc1)C(=O)NCCCCCCCCCCCC (stereo unspecified) ?
output: > 100 µM

input: Which measured TGI value corresponds to Cc1nc(SCC(N)=O)c2sc(=S)n(-c3ccccc3)c2n1 ?
output: > 10 µM

input: Which measured TGI value corresponds to Cc1cccc(NC(=O)c2sc3nc4c(cc3c2N)CCCC4)c1C ?
output: > 100 µM

input: Which measured TGI value corresponds to Cc1ccc(S(=O)(=O)c2c(O)c3ccc(O)c(C)c3oc2=O)cc1 ?
output: > 100 µM

input: Which measured TGI value corresponds to Nc1c(S(N)(=O)=O)cc(S(N)(=O)=O)cc1S(N)(=O)=O ?
output: > 100 µM

input: Which measured TGI value corresponds to CCN(CCCCCCCCCCN1CC(=O)N(CCCCCCCCCCN(CC)Cc2ccccc2OC)CC1=O)Cc1ccccc1OC ?
output: 3.61 µM

input: Which measured TGI value corresponds to COc1ccc(OC/C(N=Cc2ccncc2)=N/NC(=O)c2ccncc2)cc1 ?
output: > 100 µM

input: Which measured TGI value corresponds to O=C1/C(=C/c2ccc(Cl)cc2)CCCc2ccc(F)cc21 ?
output: 52.8 µM

input: Which measured TGI value corresponds to CNC(=O)Nc1ccc(-c2nc(N3CCOCC3)nc3c2cnn3C2CCOCC2)cc1 ?
output: > 51.9 µM

input: Which measured TGI value corresponds to CC(=O)C1(O)CCC2(O)C3(O)CC=C4CC(O)CCC4(C)C3CC(OC(=O)c3ccc(O)cc3)C12C (stereo unspecified) ?
output: > 100 µM

input: Which measured TGI value corresponds to C/C(=N\O)c1ccc(Nc2cc(-n3nnc4ccccc43)nc3ccccc23)cc1 ?
output: 9.37 µM

input: Which measured TGI value corresponds to O=C(CC(C(=O)c1cccs1)c1ccc2c(c1)OCO2)c1ccc(Br)cc1 (stereo unspecified) ?
output: > 100 µM

input: Which measured TGI value corresponds to Nc1cc(N)c2nc(-c3ccccc3)c(Oc3ccc(F)cc3)nc2c1 ?
output: 28.8 µM

input: Which measured TGI value corresponds to CNC(=S)NNc1ncnc2c1c(-c1ccc(Cl)cc1)cn2-c1ccc(C)cc1 ?
output: 21.7 µM

input: Which measured TGI value corresponds to CC(C)(C)c1cc(/C=C2/NC(=O)NC2=O)cc(C(C)(C)C)c1O ?
output: 26.2 µM

input: Which measured TGI value corresponds to Cc1cn(CCCCCOC(=O)NC(CCCNC(N)=O)C(=O)O)c(=O)[nH]c1=O (stereo unspecified) ?
output: > 100 µM

input: Which measured TGI value corresponds to O=C(/C=C\Nc1ccccc1O)C(F)(F)F ?
output: > 100 µM

input: Which measured TGI value corresponds to COc1ccc(C(=O)N2c3ccccc3Sc3ccccc32)c(F)c1 ?
output: > 100 µM

input: Which measured TGI value corresponds to Cc1cc2c(cc1C)NC1=C(N2)OC(c2c[nH]c3ccc(COc4ccccc4)cc23)C1=O (stereo unspecified) ?
output: 67.1 µM

input: Which measured TGI value corresponds to CC(C)(C)OC(=O)NCC(C#N)CNC(=O)OC(C)(C)C ?
output: > 100 µM

input: Which measured TGI value corresponds to CC1CCc2sc3nc4n(c(=O)c3c2C1)CC(C)S4 (stereo unspecified) ?
output: 52.3 µM

input: Which measured TGI value corresponds to COc1cc(Nc2ccnc(N3CCN(c4ccnc5cc(Cl)ccc45)CC3)n2)cc(OC)c1 ?
output: > 100 µM

input: Which measured TGI value corresponds to O=C1N/N=C\c2ccc(cc2)OCc2cccc(n2)COc2ccc(cc2)/C=N\NC1=O ?
output: > 25 µM

input: Which measured TGI value corresponds to N/C(=N\OC(=O)c1ccccc1)C(C(=O)NOC(=O)c1ccccc1)C1CCCCC1 (stereo unspecified) ?
output: 70.9 µM

input: Which measured TGI value corresponds to COC(=O)c1ccc2c(c1)C(NC(C)=O)CCc1cc(OC)c(OC)c(OC)c1-2 (stereo unspecified) ?
output: > 100 µM

input: Which measured TGI value corresponds to CC(C)=CCC12Cc3ccc(O)cc3C(C(C)CN1)C2C (stereo unspecified) ?
output: > 100 µM

----------
Test system: SF-268 CNS
Assay: NCI tumour cell line growth inhibition, 48 h
Field: GI50. Provide a value for each of the compounds that follow.

input: Which measured GI50 value corresponds to O=C(O)c1cc[c]([Hg][S]c2ncnc3nc[nH]c23)cc1 ?
output: 5.15 µM

input: Which measured GI50 value corresponds to C#C[C@]1(O)CC[C@H]2[C@@H]3CC=C4c5nc(Nc6ccccn6)sc5CC[C@]4(C)[C@H]3CC[C@@]21C ?
output: 1.85 µM

input: Which measured GI50 value corresponds to Cn1cc(C2=C(c3cn(C)c4ccc(N)cc34)C(=O)NC2=O)c2ccccc21 ?
output: 15.6 µM

input: Which measured GI50 value corresponds to COc1cc(/C=C2\CN(C)CC3=C2Nc2nc(SC)[nH]c(=O)c2C3c2cc(OC)c(OC)c(OC)c2)cc(OC)c1OC (centres undefined) ?
output: 1.66 µM

----------
Test system: TK-10 renal
Test: NCI tumour cell line growth inhibition, 48 h
Field: TGI. Provide a value for each of the compounds that follow.

input: Hi! What's the reported TGI for CN(C)CCNc1c([N+](=O)[O-])sc2ccc(Cl)cc12 on TK-10 renal?
output: > 100 µM

input: Hi! What's the reported TGI for COc1cc(Nc2ccnc(N3CCN(c4ccnc5cc(Cl)ccc45)CC3)n2)cc(OC)c1 on TK-10 renal?
output: > 100 µM

input: Hi! What's the reported TGI for CCN(CC)c1ccc(NC(=S)NN(C)C)cc1 on TK-10 renal?
output: > 10 µM

----------
Test system: UO-31 renal
Assay: NCI tumour cell line growth inhibition, 48 h
Field: GI50. Provide a value for each of the compounds that follow.

input: Which measured GI50 value corresponds to CNC(=O)Nc1ccc(-c2nc(N3CCOCC3)nc3c2cnn3C2CCOCC2)cc1 ?
output: 43.5 nM

input: Which measured GI50 value corresponds to C[n+]1cc2c3c(ccc2c2ccc4cc5c(cc4c21)OCO5)OCO3 ?
output: 359 nM

input: Which measured GI50 value corresponds to COc1cc(-c2csc(NC(=O)c3cc(C(F)(F)F)cc(C(F)(F)F)c3)n2)cc(OC)c1OC ?
output: 2570 nM

----------
Field: TGI. Provide a value for each of the compounds that follow.
Tested on: SNB-75 CNS
Assay: NCI tumour cell line growth inhibition, 48 h
Peptide text beside a SMILES is read from it. * marks the point of attachment. X26 = Clc1c(Cl)c(Cl)c(O*)c(Cl)c1Cl; Boc = CC(C)(C)OC(=O)*; OBn = c1ccc(CO*)cc1; Bn = c1ccc(C*)cc1

input: Hi! What's the reported TGI for CC(C)N(C(=O)C12C3C4C1C1C2C3C41C(O)C(C)(C)C)C(C)C (stereo unspecified) on SNB-75 CNS?
output: > 50 µM

input: Hi! What's the reported TGI for O=C(c1ccccc1)c1c(CC(O)c2cccnc2)n(C(=O)c2ccccc2)c2ccccc12 (stereo unspecified) on SNB-75 CNS?
output: 32.4 µM

input: Hi! What's the reported TGI for CC(=O)N(C)c1ccc(Nc2ccnc3ccc4nn(C)nc4c23)cc1 on SNB-75 CNS?
output: > 100 µM

input: Hi! What's the reported TGI for C[C@]12CC[C@@H]3c4ccc(O)c([N+](=O)[O-])c4CC[C@H]3[C@@H]1CC[C@@H]2NS(=O)(=O)c1ccc(C(F)(F)F)cc1 on SNB-75 CNS?
output: 5.73 µM

input: Hi! What's the reported TGI for Cc1ccc(C(=O)Nc2ccc(CN3CCN(C)CC3)c(C(F)(F)F)c2)cc1C#Cc1cnc(N)c2ccc(F)cc12 on SNB-75 CNS?
output: 0.863 µM

input: Hi! What's the reported TGI for Clc1cc(C(c2cc(Cl)sc2Cl)c2cc(Cl)sc2Cl)c(Cl)s1 on SNB-75 CNS?
output: > 100 µM

input: Hi! What's the reported TGI for CCC1(Br)C(=O)NC(=O)N(C2CC(O)C(CO)O2)C1N=[N+]=[N-] (stereo unspecified) on SNB-75 CNS?
output: > 100 µM

input: Hi! What's the reported TGI for CCCCCCCCCCCCOCCOCCOCCOCCOCCOCC(=O)NC(Cc1ccccc1)C(=O)Oc1ccc([N+](=O)[O-])cc1 (stereo unspecified) on SNB-75 CNS?
output: > 100 µM

input: Hi! What's the reported TGI for CC(=O)OC1CC2(O)C(CCC3(C)C(c4ccc(=O)oc4)CCC32O)C2(C)C1=CC(O)C1OC12 (stereo unspecified) on SNB-75 CNS?
output: 0.3 µM

input: Hi! What's the reported TGI for O=C1c2ccccc2N2OC3(N4CCCC4)CCCC3C12c1ccccc1 (stereo unspecified) on SNB-75 CNS?
output: > 100 µM

input: Hi! What's the reported TGI for Cc1cc(C)c2c(c1)CN1CN2Cc2cc(C)cc(C)c21 on SNB-75 CNS?
output: 24.8 µM

input: Hi! What's the reported TGI for NC(Cc1[nH]nc2ccccc12)C(=O)O (stereo unspecified) on SNB-75 CNS?
output: > 100 µM

input: Hi! What's the reported TGI for CC1(C)N=C(N)N=C(N)N1c1ccc(CCc2ccccc2)c(Cl)c1 on SNB-75 CNS?
output: 12.7 µM

input: Hi! What's the reported TGI for Cc1nc2c(n1CC(C)(C)C)C(=O)c1ccccc1C2=O on SNB-75 CNS?
output: > 100 µM

input: Hi! What's the reported TGI for Cc1c(C)c2cc3c(=O)ccoc3c(C)c2oc1=O on SNB-75 CNS?
output: 85.2 µM

input: Hi! What's the reported TGI for CC(C)=CCC12Cc3ccc(O)cc3C(C(C)CN1)C2C (stereo unspecified) on SNB-75 CNS?
output: > 100 µM

input: Hi! What's the reported TGI for CC[O-].CC[O-].O=C1C(=C([O-])c2ccccc2)C(=O)c2ccccc21.O=C1C(=C([O-])c2ccccc2)C(=O)c2ccccc21.[Ti+4] on SNB-75 CNS?
output: > 100 µM

input: Hi! What's the reported TGI for COc1cc2c3cc1Oc1c(OC)c(OC)cc4c1C(Cc1ccc(O)c(c1)Oc1ccc(cc1)CC3N(C)CC2)CN(C)C4 (stereo unspecified) on SNB-75 CNS?
output: 29.9 µM

input: Hi! What's the reported TGI for O=P1(C(O)/C=C/c2ccccc2)N(Cc2ccccc2)[C@@H]2CCCC[C@H]2N1Cc1ccccc1 (stereo partly specified) on SNB-75 CNS?
output: 54.5 µM

input: Hi! What's the reported TGI for CC(C)CC(NC(=O)C(CCC(=O)OCc1ccccc1)NC(=O)OC(C)(C)C)C(=O)NC(COCc1ccccc1)C(=O)NC(Cc1ccccc1)C(=O)Oc1c(Cl)c(Cl)c(Cl)c(Cl)c1Cl (stereo unspecified) (Boc-E(OBn)LS(Bn)F-X26; configuration not given here) on SNB-75 CNS?
output: > 100 µM

input: Hi! What's the reported TGI for Cc1ccc(C(=O)Cc2nc3c([nH]c2=O)c(C)nn3-c2ccccc2)c(C)c1 on SNB-75 CNS?
output: 3.46 µM

input: Hi! What's the reported TGI for C=C1C[C@@H]2CC[C@@]34C[C@H]5O[C@H]6[C@@H](O3)[C@H]3O[C@H](CC[C@@H]3O[C@H]6[C@H]5O4)CC(=O)C[C@@H]3[C@@H](OC)[C@@H](C[C@H](O)CN)O[C@H]3C[C@H]3O[C@@H](CC[C@@H]1O2)C[C@@H](C)C3=C on SNB-75 CNS?
output: > 1 µM

input: Hi! What's the reported TGI for O=C1c2cccnc2S(=O)(=O)N1c1ccc([N+](=O)[O-])cc1 on SNB-75 CNS?
output: > 100 µM

input: Hi! What's the reported TGI for COCC#C[C@@]1(O)CCCCC1CC(OC)OC (stereo partly specified) on SNB-75 CNS?
output: > 100 µM

input: Hi! What's the reported TGI for Cc1ccc(S(=O)(=O)c2c(O)c3ccc(O)c(C)c3oc2=O)cc1 on SNB-75 CNS?
output: > 100 µM

input: Hi! What's the reported TGI for O=C1CC(c2ccccc2Cl)C2(C(=O)NC(=O)NC2=O)C(c2ccccc2Cl)C1 (stereo unspecified) on SNB-75 CNS?
output: > 100 µM
